molecular target: pre-formed polyQ46 or Exon1-polyQ46 aggregates (mHTT) (Homo sapiens, UniProt P42858, INS38QQQQQQQQQQQQQQQQQQQQQQQQQ); experiment: Q46_RBA radioligand binding assay (displacement of [3H]-radioligand)
So I've got a bunch of molecules here, and I need their IC50 values.

Task: Give the reported value of IC50 for this record: CNc1c(-c2cn3c(n2)sc2cc(OCCOCCOCCOCCOCC(=O)N[C@H](C(=O)N4C[C@H](O)C[C@H]4C(=O)NCc4ccc(-c5scnc5C)cc4)C(C)(C)C)ccc23)nc2cc(C#N)ccn12 [Compound 4]
Result: 100 to 500 nM

Task: Give the reported value of IC50 for this record: CNc1c(-c2cn3c(n2)sc2cc(OCCOCCOCCOCCOc4cc(-c5scnc5C)ccc4CNC(=O)[C@@H]4C[C@@H](O)CN4C(=O)[C@H](C(C)C)N4Cc5ccccc5C4=O)ccc23)nc2cc(C#N)ccn12 [Compound 8]
Result: 100 to 500 nM

Task: Give the reported value of IC50 for this record: CN1C(=O)CCC(N2C(=O)c3cccc(NCCOCCOCCOc4ccc(COc5ccc6oc(-c7ccc(=O)n(C)n7)nc6c5)nc4)c3C2=O)C1=O (centres unmarked) [Compound 30]
Result: < 100 nM

Task: Give the reported value of IC50 for this record: Cc1ncsc1-c1ccc(CNC(=O)[C@H]2C[C@H](O)CN2C(=O)[C@H](NC(=O)CCOCCOCCOCCOCCOCCOCCOCCOCCOCCOCCOCCOCCOCCOCCOCCOCCOc2ccc(C(=O)Nc3ccc4oc(-c5ccc(=O)n(C)n5)nc4c3)nc2)C(C)(C)C)cc1 [Compound 27]
Result: 100 to 500 nM

Task: Give the reported value of IC50 for this record: Cc1ncsc1-c1ccc(CNC(=O)[C@H]2C[C@H](O)CN2C(=O)[C@@H](C(C)C)N2Cc3ccccc3C2=O)c(OCCOCCOCCOCCOc2ccc(C(=O)Nc3ccc4oc(-c5ccc(=O)n(C)n5)nc4c3)nc2)c1 [Compound 11]
Result: < 100 nM

----------
So I've got a bunch of compounds here, and I need their Kd values.

Task: // fetch Kd for Cn1nc(-c2nc3cc(OCc4ccc(OCCOCCOCCNc5cccc6c5C(=O)N(C5CCC(=O)NC5=O)C6=O)cn4)ccc3o2)ccc1=O (centres unmarked) [Compound 31] ; system: mouse CRBN thalidomide binding domain (mCRBN-TBD) (Mus musculus (Mouse))
Sequence (Q8C7D2 321-429): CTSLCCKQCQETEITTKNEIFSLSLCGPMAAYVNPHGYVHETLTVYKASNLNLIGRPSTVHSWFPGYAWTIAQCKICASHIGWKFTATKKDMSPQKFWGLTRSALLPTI
Result: 100 to 500 nM

Task: // fetch Kd for CN1C(=O)CCC(N2C(=O)c3cccc(NCCOCCOCCOc4ccc(C(=O)Nc5ccc6oc(-c7ccc(=O)n(C)n7)nc6c5)nc4)c3C2=O)C1=O (centres unmarked) [Compound 70] ; system: mouse CRBN thalidomide binding domain (mCRBN-TBD) (Mus musculus (Mouse))
Result: > 500 nM

Task: // fetch Kd for Cn1nc(-c2nc3cc(NC(=O)c4ccc(OCCOCCOCCOCCOCCOCCNc5cccc6c5C(=O)N(C5CCC(=O)NC5=O)C6=O)cn4)ccc3o2)ccc1=O (centres unmarked) [Compound 32] ; system: mouse CRBN thalidomide binding domain (mCRBN-TBD) (Mus musculus (Mouse))
Result: 100 to 500 nM

Task: // fetch Kd for Cn1nc(-c2nc3cc(NC(=O)c4ccc(OCCOCCOCCOCCNc5cccc6c5C(=O)N(C5CCC(=O)NC5=O)C6=O)cn4)ccc3o2)ccc1=O (centres unmarked) [Compound 36] ; system: mouse CRBN thalidomide binding domain (mCRBN-TBD) (Mus musculus (Mouse))
Result: 100 to 500 nM

Task: // fetch Kd for Cn1nc(-c2nc3cc(NC(=O)c4ccc(OCCOCCOCCNc5cccc6c5C(=O)N(C5CCC(=O)NC5=O)C6=O)cn4)ccc3o2)ccc1=O (centres unmarked) [Compound 33] ; system: mouse CRBN thalidomide binding domain (mCRBN-TBD) (Mus musculus (Mouse))
Result: 100 to 500 nM

Task: // fetch Kd for Cn1nc(-c2nc3cc(NC(=O)c4ccc(OCCOCCOCCOCCOCCOCCOCCOCCOCCNc5cccc6c5C(=O)N(C5CCC(=O)NC5=O)C6=O)cn4)ccc3o2)ccc1=O (centres unmarked) [Compound 38] ; system: mouse CRBN thalidomide binding domain (mCRBN-TBD) (Mus musculus (Mouse))
Result: 100 to 500 nM

Task: // fetch Kd for CN1C(=O)CCC(N2C(=O)c3cccc(NCCOCCOCCOCCOCCOCCOCCOCCOCCOCCOCCOCCOc4ccc(C(=O)Nc5ccc6oc(-c7ccc(=O)n(C)n7)nc6c5)nc4)c3C2=O)C1=O (centres unmarked) [Compound 40] ; system: mouse CRBN thalidomide binding domain (mCRBN-TBD) (Mus musculus (Mouse))
Result: > 500 nM

Task: // fetch Kd for CN1C(=O)CCC(N2C(=O)c3cccc(NCCOCCOCCOCCOCCOCCOc4ccc(C(=O)Nc5ccc6oc(-c7ccc(=O)n(C)n7)nc6c5)nc4)c3C2=O)C1=O (centres unmarked) [Compound 39] ; system: mouse CRBN thalidomide binding domain (mCRBN-TBD) (Mus musculus (Mouse))
Result: > 500 nM

Task: // fetch Kd for Cn1nc(-c2nc3cc(NC(=O)c4ccc(OCCOCCOCCOCCOCCOCCOCCOCCOCCOCCOCCOCCNc5cccc6c5C(=O)N(C5CCC(=O)NC5=O)C6=O)cn4)ccc3o2)ccc1=O (centres unmarked) [Compound 34] ; system: mouse CRBN thalidomide binding domain (mCRBN-TBD) (Mus musculus (Mouse))
Result: > 500 nM

Task: // fetch Kd for Cn1nc(-c2nc3cc(NC(=O)c4ccc(OCCOCCOCCOCCOCCOCCOCCOCCOCCOCCOCCOCCOCCOCCOCCOCCNc5cccc6c5C(=O)N(C5CCC(=O)NC5=O)C6=O)cn4)ccc3o2)ccc1=O (centres unmarked) [Compound 37] ; system: mouse CRBN thalidomide binding domain (mCRBN-TBD) (Mus musculus (Mouse))
Result: 100 to 500 nM

Task: // fetch Kd for CN1C(=O)CCC(N2C(=O)c3cccc(NCCOCCOCCOc4ccc(COc5ccc6oc(-c7ccc(=O)n(C)n7)nc6c5)nc4)c3C2=O)C1=O (centres unmarked) [Compound 30] ; system: mouse CRBN thalidomide binding domain (mCRBN-TBD) (Mus musculus (Mouse))
Result: > 500 nM
